tested on: HT-29 cells; assay: MTT assay cell viability, HT-29 cells; type: cell-based; conditions: HT-29 cells, 36 hr treatment
measured_parameter: pIC50
Scale for pIC50: -log10 of concentration given in mol/L; no unit attached.

Lab note: need pIC50 for CC1=CCCC2C1(C)CCC(C)C2(C)CCC1=CC(=O)OC1O (stereo not shown) [HCD, 16-hydroxy-cleroda-3,13-dine-15,16-olide] on HT-29 cells, anyone have it?
5.30

###

test system: HT-29 cells; test: MTT assay cell viability, HT-29 cells; format: cell-based; conditions: Homo sapiens; HT-29 cells, 36 hr treatment
measured_parameter: IC50 (µM)
Express the result in µM but write the number alone.

For the molecule CCCCCC1=C/C(=C/c2[nH]c(-c3ccc[nH]3)cc2OC)N=C1C [PG, Prodigiosin] , what IC50 is on record?
0.5

Fill in: IC50 of O=c1[nH]cc(F)c(=O)[nH]1 [5-FU, 5-Fluorouracil] is ___
50
